Attribute: melting point
Report the value in °C with no unit label.

// known answers, use as guide
// lookup melting point for O=C(N[C@H]1CC[C@H](CCN2CCN(c3nccc4c3CCO4)CC2)CC1)c1ccc2c(c1)OCO2 [Example 121] 243.5

Entry CCS(=O)(=O)N[C@H]1CC[C@H](CCN2CCN(c3nccc4c3CCO4)CC2)CC1 [Example 49] please 224

Further, for CC(C)(C)Oc1ccc(C(=O)N[C@H]2CC[C@H](CCN3CCN(c4nccc5c4CCO5)CC3)CC2)cc1 [Example 136] ? 200

Try the molecule O=C(N[C@H]1CC[C@H](CCN2CCN(c3nccc4c3CCO4)CC2)CC1)C1(O)CCC1 [Example 123] 177.5

Please look at the following molecule next.
Dear colleague, I am looking for the recorded melting point of the following molecule: COCC(=O)N[C@H]1CC[C@H](CCN2CCN(c3nccc4c3CCO4)CC2)CC1 [Example 38] 169.5

Ref: patent US8586579B2
